Here the recorded GI50 is given for each entry.
system: SNB-78; test: NCI tumour cell line growth inhibition, 48 h
Activity calls are given as the source filed them. No stated cut-off is given here; in the data, active = GI50 up to about 1.1 µM and inactive = higher.

Example entries and their recorded answers appear below.
molecule	measured_value
Cc1cc2c(Br)cc(Br)c(O)c2nc1C(=O)c1ccccc1	50.1 µM (inactive)
COc1ccc(C(=O)N2c3ccccc3N(C)n3cccc3C2CC(=O)O)cc1 (stereo not given)	> 100 µM (inactive)

Item O=C1c2ccc(O)cc2C(=O)c2ccc(O)cc21 ; assay system SNB-78; GI50 reported as > 100 µM (inactive)

Item Cc1cc(NS(=O)(=O)c2ccc(NC(=O)c3ccc(Cl)c4c(Nc5ccc(S(=O)(=O)Nc6cc(C)on6)cc5)c5ccccc5nc34)cc2)no1 ; assay system SNB-78; GI50 reported as 36.1 µM (inactive)

Item COc1ccc2c(c1)CC1c3c(cc4c(c3-2)OCO4)CCN1C (stereo not given) ; assay system SNB-78; GI50 reported as 40.7 µM (inactive)

Item C=C1CC(c2ccc(O)c(OC)c2)Oc2c(OC)cccc21 (stereo not given) ; assay system SNB-78; GI50 reported as 33.2 µM (inactive)

Item O=C(O)CCC(=O)N1C/C(=C\c2ccccc2)C(=O)/C(=C/c2ccccc2)C1 ; assay system SNB-78; GI50 reported as 7.24 µM (inactive)

Item O=C(NCCS(=O)(=O)N1C(=O)C2CCCN2C(=O)[C@@H]1Cc1ccccc1)OCc1ccccc1 (stereo not given in full) ; assay system SNB-78; GI50 reported as 61.9 µM (inactive)

Item CCc1cccc(CC)c1NC(=O)CC1SC(N)=NC1=O (stereo not given) ; assay system SNB-78; GI50 reported as > 100 µM (inactive)

Item COC(=O)c1onc(-c2c(OC)cc(OC)cc2OC)c1C(=O)OC ; assay system SNB-78; GI50 reported as > 100 µM (inactive)

Item Cc1ccc(NC(=O)C(=O)C2C(=O)NC(=O)NC2=O)cc1C ; assay system SNB-78; GI50 reported as > 100 µM (inactive)

Item COc1cc(C2C(Cl)C(=O)N2NC(=O)Cc2ccccc2)cc(Br)c1O (stereo not given) ; assay system SNB-78; GI50 reported as > 100 µM (inactive)

Item C/C=C/c1cc2c(c(=O)o1)C(=O)[C@@H](O)[C@H](C)O2 ; assay system SNB-78; GI50 reported as 18.8 µM (inactive)

Item O=C1CC23CC(=O)CC2(C1)c1ccccc1C3=O (stereo not given) ; assay system SNB-78; GI50 reported as > 100 µM (inactive)

Item C[C@H]1CCC2C(CN3CCCCC3)C(=O)OC2[C@]2(C)C(=O)CC(N3CCCCC3)C12O (stereo not given in full) ; assay system SNB-78; GI50 reported as 4.41 µM (inactive)

Item O=S(=O)(O)c1ccc(-c2c3nc(c(-c4ccc(S(=O)(=O)O)cc4)c4ccc([nH]4)c(-c4ccc(S(=O)(=O)O)cc4)c4nc(c(-c5ccc(S(=O)(=O)O)cc5)c5ccc2[nH]5)C=C4)C=C3)cc1 ; assay system SNB-78; GI50 reported as 44.6 µM (inactive)

----------
system: OVCAR-4; assay: NCI tumour cell line growth inhibition, 48 h
Activity calls are given as the source filed them. Rule as the data show it: active = GI50 up to about 1.1 µM and inactive = higher.
Log the outcome using a class from y for active, n for inactive

Worked examples follow.
compound	system_tested	label_value
C=C1C(=O)O[C@@H]2C[C@@H]3[C@]4(CC[C@]5(C)[C@@H]([C@H](C)CC/C=C(\C)C=O)CC[C@@]35C)C[C@]4(CCC(=O)OC)[C@H]12	OVCAR-4	n
COc1ccc(C(=O)N2c3ccccc3N(C)n3cccc3C2CC(=O)O)cc1 (stereo not drawn)	OVCAR-4	n

# fetch the recorded call for COc1cc(OC)c2nc(C)c3c(c2c1)OCC3 here
n

# fetch the recorded call for COc1ccc2nc3cc([N+](=O)[O-])ccc3c(NNc3ccccc3)c2c1 here
n

# fetch the recorded call for COP(=O)(OC)C(Nc1ccc(Cc2ccc(NC(c3ccco3)P(=O)(OC)OC)cc2)cc1)c1ccco1 (stereo not drawn) here
n

# fetch the recorded call for COc1ccc(C=O)cc1O[Si](C)(C)C(C)(C)C here
n

# fetch the recorded call for NS(=O)(=O)c1cccc(NC(=S)NC(=O)Nc2ccc(Cl)c(Cl)c2)c1 here
n

# fetch the recorded call for O=C(O)CCC1CCc2cccc3occ1c23 (stereo not drawn) here
n

# fetch the recorded call for CC(=O)Nc1ccc(C(=O)NN2C(=O)C(Cl)C2c2ccc(Cl)cc2)cc1 (stereo not drawn) here
n

# fetch the recorded call for C/C=C/C=N/N(c1nnc(-c2ccccc2)c(-c2ccccc2)n1)S(=O)(=O)c1ccc(C)cc1 here
n

# fetch the recorded call for Cc1ccc([N+](=O)[O-])cc1S(=O)(=O)Nc1ccc(C2=NN(c3ccc([N+](=O)[O-])cc3[N+](=O)[O-])C(c3cccs3)C2)cc1 (stereo not drawn) here
n

# fetch the recorded call for CC1=CC(=O)/C(=C/NC(=S)NCCc2ccccc2)C(=O)O1 here
n
